System: MALME-3M melanoma
EXPERIMENTAL PROTOCOL: NCI-60 one-dose screen, 48 h (100 = growth as untreated, 0 = no growth, -100 = all killed)
STUDY CONDITIONS: 10 µM unless noted
The panel holds about 83,000 compounds, 20% with a hit somewhere; the sample as a whole holds those more often.
# cutoff 70% applies to growth; >= gives Yes, < gives No

COMPOUND: CNCc1ccccc1CN(CC(=O)Nc1ccc2c(c1)CC1(C2)C(=O)Nc2ncccc21)C(=O)C(C)(C)C (centres undefined)
LABEL VALUE: Yes
//
COMPOUND: C=CCn1c(SCC(=O)Nc2ccc(C(=O)/C=C/c3ccccc3)cc2)nnc1-c1ccc(OC)c(OC)c1
LABEL VALUE: Yes
//
COMPOUND: COc1ccc(C2=CC(c3ccc(OC)cc3Br)N3C=CSC3=N2)cc1 (centres undefined)
LABEL VALUE: Yes
//
COMPOUND: CC(CN1CCN(CCOCCO)CC1)CN1c2ccccc2Sc2ccc(Cl)cc21 (centres undefined)
LABEL VALUE: No
//
COMPOUND: [Ag].[Ag].[NH-]S(=O)(=O)c1ccc(N=Nc2cc(N=Nc3ccc(S([NH-])(=O)=O)cc3)c3c(NC(=O)C(Cl)Cl)cccc3c2OC(=O)C(Cl)Cl)cc1.[c-]1nccs1.[c-]1nccs1
LABEL VALUE: No

In plain terms: is recorded growth at least 70% for CCc1ccc(Nc2ncnc3c2cnn3-c2cccc(Br)c2)cc1 ?
Yes

Okay, and O=C(Nc1ccc2[nH]c3ccccc3c2c1)c1ccccc1Cl ?
No

Okay, and COc1cccc(OCC(O)CN2CCN(c3ccccc3)CC2)c1 (centres undefined) ?
Yes

Okay, and COc1ccc(-c2nsc3c2NC(=O)CC3c2cccc(F)c2)cc1 (centres undefined) ?
No

====

Would you mind telling me the reported growth of each entry?
Tested on: 786-0 renal
EXPERIMENTAL PROTOCOL: NCI-60 one-dose screen, 48 h (100 = growth as untreated, 0 = no growth, -100 = all killed)
STUDY CONDITIONS: 10 µM unless noted
Procedure: Cells are grown in 96 well plates and exposed to the test compound for 48 hours. Compounds are tested at a single concentration, which is 10^-5 M for most compounds. The reported endpoint is percent growth (GI% or GIPRCNT), where numbers from 0 - 100% represent growth inhibition, and numbers from -100% - 0 represent cell death. For example, a value of 40 represents 60% growth inhibition. A value of 0 means no net growth occurred over the course of the experiment. […]
The panel holds about 83,000 compounds, 20% with a hit somewhere; the sample as a whole holds those more often.
Answers are plain numbers, in %.

Recorded results for 6 molecules are shown here.
MOLECULE: FC(F)(F)c1ccc(/C=N/Nc2nnc3n2N=C(c2ccc(Cl)cc2)CS3)cc1
growth (%): 27.6
//
MOLECULE: CCN(C(=O)Nc1cccc2ccccc12)c1ccccc1
growth (%): 106
//
MOLECULE: CCc1ccc2c(c1)N(CCO)C1=C(C(=O)OC1)C2c1cccc(Cl)c1 (centres undefined)
growth (%): 32.8
//
MOLECULE: Fc1cnccc1-c1nc2ccc3[nH]ncc3c2c2c1CCCC2
growth (%): 28.1
//
MOLECULE: Cc1ccc(NC(=O)c2[nH]c(SCCN(C)C)nc2-c2ccc(F)cc2)cc1Nc1ccc2ncn(C)c(=O)c2c1
growth (%): 72.8
//
MOLECULE: Clc1ccc2c(c1)-n1cccc1C(c1ccc3ccccc3c1)=NC2
growth (%): 88.7

Count: 3. Required value per item: growth.
1. COc1cc2c(cc1OC)C(=O)C(Br)CC2 (centres undefined)
2. COc1cc(C)cc2oc3oc(=O)c(-c4csc(-c5cc6ccccc6oc5=O)n4)cc3c(=O)c12
3. Nc1nonc1-c1nc2ccccc2n1Cc1ccc(F)cc1

1. 63.8
2. 106
3. 76.4

Count: 5. Required value per item: growth.
1. Oc1c(C(c2ccc(F)cc2)N2CCCCC2)ccc2cncnc12 (centres undefined)
2. Nc1nc(N)c2c(n1)NC(c1sc(Cl)nc1Cl)CC(c1ccccc1)=N2 (centres undefined)
3. CCC(C)C1NC(=O)c2nc(oc2-c2ccccc2)-c2csc(n2)-c2csc(n2)-c2nc(oc2C)-c2coc(n2)CNC(=O)C(C(C)CC)NC1=O (centres undefined)
4. O=C(Nc1ccc2[nH]c3ccccc3c2c1)c1ccccc1Cl
5. COc1cc(/C=C/c2ccc3c(Br)cc(Br)c(O)c3n2)ccc1O

1. 23.1
2. 62
3. -73.1
4. 62.1
5. 32.6

Count: 7. Required value per item: growth.
1. CCSc1ccc([C@@H]2[C@@H](O)C(=O)N2c2cc(OC)c(OC)c(OC)c2)cc1
2. O=C(NO)c1ccc(NCc2csc3ccccc23)cc1
3. CC1=C(C(=O)Nc2ccc(F)cc2)C(c2ccccc2)C2=C(CC(C)(C)CC2=O)N1 (centres undefined)
4. COc1cccc(CC(C)=C(c2ccc(OCCCN(C)C)cc2)c2ccc(OCCCN(C)C)cc2)c1
5. CCCN(CCC)CC(O)COc1ccccc1C(=O)Nc1ccccc1 (centres undefined)
6. CC(C)(C)c1ccc(Cn2c(-c3nonc3N)nc3ccccc32)cc1
7. CC(=O)c1cccc(Nc2ncnc3ccc(NC(=O)c4ccco4)cc23)c1

1: 14; 2: 71.3; 3: 84.6; 4: -85.6; 5: 88; 6: 80.4; 7: 89.5

Count: 3. Required value per item: growth.
1. CC[C@H](Nc1nc(C)nc(N)c1C#N)c1nc2cccc(NCc3ccc(C(=O)NO)cc3)c2c(=O)n1-c1ccccc1
2. CC(=O)Nc1nonc1-c1nc2ccccc2n1Cc1ccc(C(C)(C)C)cc1
3. COc1ccc(C(=O)c2c(N)nc3n2CCCC3)cc1OC

[5.71, 70.2, 100]

Count: 5. Required value per item: growth.
1. CC(=O)OC1Oc2cc(C)c(C)cc2-c2oc(=O)c(-c3ccc(F)cc3)cc21 (centres undefined)
2. O=C1C2=C(C(=O)c3c(O)ccc(O)c31)N(c1ccc(N3CCOCC3)nc1)Cc1ccccc1O2
3. CCSc1ccc([C@@H]2[C@@H](N)C(=O)N2c2cc(OC)c(OC)c(OC)c2)cc1
4. COc1ccc(/C(=C\c2cc(OC)c(OC)c(OC)c2)C(=O)N2CCNCC2)cc1
5. CC1=C(C(=O)Nc2ccc(F)cc2)C(c2ccc(Cl)cc2)C2=C(CC(C)(C)CC2=O)N1 (centres undefined)

1. 56.3
2. -83.7
3. 31.7
4. 103
5. 88.3

Count: 3. Required value per item: growth.
1. CC(C)NCCCCCNc1cc(O)cc2cccnc12
2. CC(C)CC(NC(=O)C(CCCN=C(N)N)NC(=O)OCc1ccccc1)C(=O)NC(CNC(=O)/C=C/c1ccccc1)C(C)C (centres undefined)
3. Clc1cc(Br)ccc1-c1ccc(CNCC2CCNCC2)o1

70.1
101
42.3

Count: 5. Required value per item: growth.
1. C#CC[C@@H]1C[C@]2(C)[C@H]3CC=C4[C@H]5CC(C)(C)CC[C@]5(C(=O)NCCCCN)CC[C@@]4(C)[C@]3(C)CC[C@H]2C(C)(C)[C@H]1OC(C)=O
2. CCCc1n(Cc2ccc3ccccc3n2)cc[n+]1Cc1ccc2ccccc2c1
3. CCN1CCN(Cc2ccc(NC(=O)c3nc4ccc5[nH]ncc5c4c4c3CCCC4)cc2C(F)(F)F)CC1
4. CCOC(=O)C1=C(C)NC(SCc2nnc(-c3ccc(Cl)cc3)o2)=NC1c1ccc(Cl)cc1 (centres undefined)
5. Cn1nc(C(F)(F)F)cc1-c1c[nH]c(OCc2ccc(Cl)cc2)c(-c2ccc(Cl)c(C(F)(F)F)c2)c1=O

1: 6.69; 2: 34.7; 3: -88.6; 4: 83.4; 5: 3.83

Count: 2. Required value per item: growth.
1. COc1ccc2[nH]c(C(=O)OCc3ccc4cccc(O)c4n3)cc2c1
2. COc1cccc2nc(Nc3cccc(NC(=O)c4cc(N5CCOCC5)cc(C(F)(F)F)c4)c3)ccc12

[-76.1, 65.8]
